Numbers sourced from patent US20250270296A1.

- Substrate: S protein of SARS-CoV-2 variant P1 (Brazil, Gamma), full length, on pseudovirus or authentic virus (SARS-CoV-2), P0DTC2
- procedure details: cell-based or functional assay

binder	PRNT50 (ng/mL)
RBD-chAb-45 (antibody, V domains shown) VH: EVQLQQSGPELVKPGASVKISCKTSGYTFTEYTIYWVKQSLGKSLEWIGGNNPNNDDTTYKQFFKGKATLTVDKSSSTAYMELRSLTSEDSAVYYCARDGYPYYYALDFWGQGTSVTVSS VL: DILMTQSQKFMSTSVGDRVSVTCKSSQNVGTNVAWYQQKPGQSPKALIYSASYRYSGVPDHFTGSGSGTDFTLTISNVQSADLAEYFCQQYNNYPWTFGGGTKLDIK	3.26
RBD-chAb-28 (antibody, V domains shown) VH: QVQLQQPGTELVMPGASVKMSCKASGYTFTDYYLHWMKQRPGQGLEWIGAIDSSDSYTDYNQNFKGKATLTVDESSSTAYMHLSSLTSEDSAVYYCARGKDAYDRRPWFAYWGQGTLVTVSA VL: DIQMTQTTSSLSASLGDRVTISCSASQGIRYYLNWYQQKPDGTVKLLIYYTSNLHSGVPSRFSGSGSGTDYSLTISNLEPEDIATYYCQQYNKLPYTFGGGTKLDIK	58.3
RBD-chAb-51 (antibody, V domains shown) VH: EVQLQQSGPELVKPGASAKISCKTSGYTFTEYTMYWVKQSHGKSLEWIGGINPNNGDTTYNQTFKGKATLTVDKSSSTAYMELRSLTSEDSAVYYCARDGYPFYYALDYWGQGISVTVSS VL: DIVMTQSQKFMSTSVGDRVSVTCKARQIVGTNVAWYQQKPGQSPKALIYSASYRYSGVPDRFTGSGSGTDFTLTITNVHSEDLAEFFCHQYNSYPWTFGGGTKLDIK	2.92
